test system: Rattus norvegicus; experiment: Antidiuretic activity in iv dosed rat; type: ADME, organism-based, Urine; conditions: in vivo
Where a SMILES comes first, the peptide text is derived from it. Bridges are numbered along the chain shown (N, C = ends).
observedProperty: Activity (U/mg)
Write the answer as a number in U/mg, unit excluded.

Briefly, Activity measured for CC[C@H](C)[C@@H]1NC(=O)[C@H](Cc2ccc(O)cc2)NC(=O)[C@@H](N)CSSC[C@@H](C(=O)NCC(=O)N[C@@H](CC(C)C)C(=O)NCC(N)=O)NC(=O)[C@H](CC(N)=O)NC(=O)[C@H]([C@@H](C)O)NC1=O (H-CYITNCGLG-NH2; disulfide 1-6) : 0.001

---

system: Rattus norvegicus; test: Antidiuretic activity in iv dosed rat; assay type: ADME, organism-based, Urine; settings: in vivo
*1 amine or outer side, *2 acyl side, *3 side chain or, on linkers, in order; H or OH if unused. Where a SMILES comes first, the peptide text is derived from it. Bridges are numbered along the chain shown (N, C = ends). X1 = O=C([C@H](O)CS[*:2])[*:1]
Listed below: Activity values for each entry.

compound: CC[C@H](C)[C@@H]1NC(=O)[C@H](Cc2ccc(O)cc2)NC(=O)[C@H](O)CSSC[C@@H](C(=O)N2CCC[C@H]2C(=O)N[C@@H](CC(C)C)C(=O)NCC(N)=O)NC(=O)[C@H](CC(N)=O)NC(=O)[C@H](CCC(N)=O)NC1=O (YIQNCPLG-NH2; linker N-5 via X1)
observedProperty: Activity
dataValue: 16.6 U/mg
//
compound: CC[C@H](C)[C@@H]1NC(=O)[C@H](Cc2ccc(O)cc2)NC(=O)[C@@H](N)CSSC[C@@H](C(=O)NCC(=O)N[C@@H](CC(C)C)C(=O)NCC(N)=O)NC(=O)[C@H](CC(N)=O)NC(=O)[C@H](CCC(N)=O)NC1=O (H-CYIQNCGLG-NH2; disulfide 1-6)
observedProperty: Activity
dataValue: 0.01 U/mg
//
compound: CC[C@H](C)[C@@H]1NC(=O)[C@H](Cc2ccc(O)cc2)NC(=O)[C@H](O)CSSC[C@@H](C(=O)NCC(=O)N[C@@H](CC(C)C)C(=O)NCC(N)=O)NC(=O)[C@H](CC(N)=O)NC(=O)[C@H]([C@@H](C)O)NC1=O (YITNCGLG-NH2; linker N-5 via X1)
observedProperty: Activity
dataValue: 0.048 U/mg
//
compound: CC[C@H](C)[C@@H]1NC(=O)[C@H](Cc2ccc(O)cc2)NC(=O)[C@@H](N)CSSC[C@@H](C(=O)N2CCC[C@H]2C(=O)N[C@@H](CC(C)C)C(=O)NCC(N)=O)NC(=O)[C@H](CC(N)=O)NC(=O)[C@H](CCC(N)=O)NC1=O
observedProperty: Activity
dataValue: 2.7 U/mg

Please fill in: Activity reported for CC[C@H](C)[C@@H]1NC(=O)[C@H](Cc2ccc(O)cc2)NC(=O)[C@@H](N)CSSC[C@@H](C(=O)N2CCC[C@H]2C(=O)N[C@@H](CC(C)C)C(=O)NCC(N)=O)NC(=O)[C@H](CC(N)=O)NC(=O)[C@H]([C@@H](C)O)NC1=O (H-CYITNCPLG-NH2; disulfide 1-6) = 1.8 U/mg

---

tested on: Gallus gallus; assay: Vasodepressor activity in conscious chicken; assay type: ADME, organism-based; conditions: in vivo
*1 amine or outer side, *2 acyl side, *3 side chain or, on linkers, in order; H or OH if unused. Where a SMILES comes first, the peptide text is derived from it. Bridges are numbered along the chain shown (N, C = ends). X1 = O=C([C@H](O)CS[*:2])[*:1]
Entries and their Activity values follow.
// note: answer is a bare numeric in U/mg

compound: CC[C@H](C)[C@@H]1NC(=O)[C@H](Cc2ccc(O)cc2)NC(=O)[C@H](O)CSSC[C@@H](C(=O)N2CCC[C@H]2C(=O)N[C@@H](CC(C)C)C(=O)NCC(N)=O)NC(=O)[C@H](CC(N)=O)NC(=O)[C@H](CCC(N)=O)NC1=O (YIQNCPLG-NH2; linker N-5 via X1)
Activity, U/mg: 1778

With those in mind, consider the next compound.
So for CC[C@H](C)[C@@H]1NC(=O)[C@H](Cc2ccc(O)cc2)NC(=O)[C@H](O)CSSC[C@@H](C(=O)NCC(=O)N[C@@H](CC(C)C)C(=O)NCC(N)=O)NC(=O)[C@H](CC(N)=O)NC(=O)[C@H]([C@@H](C)O)NC1=O (YITNCGLG-NH2; linker N-5 via X1) , the logged Activity turned out to be 50
